Molecular target: Nicotinamide N-methyltransferase (Homo sapiens) (UniProt P40261)
Sequence (P40261 whole entry, looked up): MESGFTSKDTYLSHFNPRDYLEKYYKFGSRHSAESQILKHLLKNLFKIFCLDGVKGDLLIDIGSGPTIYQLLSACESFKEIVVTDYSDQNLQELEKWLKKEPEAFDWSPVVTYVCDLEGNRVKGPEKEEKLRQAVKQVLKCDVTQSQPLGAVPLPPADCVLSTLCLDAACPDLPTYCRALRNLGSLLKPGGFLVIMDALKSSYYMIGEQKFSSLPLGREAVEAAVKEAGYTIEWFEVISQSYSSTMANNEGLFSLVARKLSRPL
Test: Primary Screen for Target Class Profiling of Small Molecule Inhibitors of Methyltransferases; note: % is set by controls: 0 for no effect and ±100 for the full control effect
Settings: purified enzyme, MTase-Glo SAH luminescence; measured here: NNMT inhibition; at 40 µM; stronger effect = lower value
Procedure: PI: Matthew D. Hall Ph.D. and Quinlin M. Hanson Ph.D. National Center for Advancing Translational Sciences (NCATS) National Institute of Health (NIH), Rockville, MD […] High-through put screening assays were developed at the National Center for Advancing Translational Science (NCATS) for the enzymes NNMT, PNMT, HNMT, GNMT, COMT, and GAMT. Enzymatic activity was measured as a function of SAM cofactor conversion using the MTase Glo kit (Promega) for all enzymes. […]
About 970 (3.9%) of roughly 25,000 compounds were called active. Not shown: some 8% with an inconclusive outcome. The full list was thinned out, with actives kept by preference.
value-type: activity change, negative = inhibition (%)
Field format: number, assumed %, no unit text.

input: # lookup: activity change, negative = inhibition of C[C@H]1O[C@@H](O[C@H]2CC[C@]3(CO)C4CC[C@]5(C)[C@@H](C6=CC(=O)OC6)CC[C@]5(O)[C@@H]4CC[C@H]3C2)[C@H](O)[C@H](O)[C@@H]1O[C@@H]1O[C@H](CO)[C@@H](O)[C@H](O)[C@H]1O (stereo not given in full)
output: -16

input: # lookup: activity change, negative = inhibition of COC(=O)c1ccccc1NC(=O)N1Cc2ccccc2-n2cccc2C1c1ccccc1Cl (stereo not given)
output: 0.178

input: # lookup: activity change, negative = inhibition of CC(=O)Nc1ccc(-c2ccc3n(c2=O)C[C@H]2C[C@@H]3CN(C3CCN(C)CC3)C2)cc1
output: -9.65

input: # lookup: activity change, negative = inhibition of COc1cccc(CC(=O)N2CCCCCC2CN2CCCC2)c1 (stereo not given)
output: -4.35

input: # lookup: activity change, negative = inhibition of COC1CC(O[C@H]2CC[C@@]3(C)C(CCC4C3CC[C@]3(C)[C@@H](C5=CC(=O)OC5)CC[C@]43O)C2)OC(C)C1O (stereo not given in full)
output: -27.7

input: # lookup: activity change, negative = inhibition of CCc1ccccc1NC(=O)N1Cc2ccccc2-n2cccc2C1c1ccccc1Cl (stereo not given)
output: 1.65

input: # lookup: activity change, negative = inhibition of CN(C)c1ccc(C2c3cccn3-c3ccccc3CN2C(=O)Nc2ccccc2)cc1 (stereo not given)
output: -4.78

input: # lookup: activity change, negative = inhibition of CO[C@H]1C[C@H](O[C@H]2CC[C@]3(CO)[C@H]4CC[C@]5(C)[C@@H](C6=CC(=O)OC6)CC[C@]5(O)[C@@H]4CC[C@]3(O)C2)O[C@H](C)[C@H]1O
output: -17.6

input: # lookup: activity change, negative = inhibition of NCC(O)c1ccc(O)cc1 (stereo not given)
output: -9.18

input: # lookup: activity change, negative = inhibition of CCc1ccc(C2c3cccn3-c3ccccc3CN2C(=O)Nc2cc(C)cc(C)c2)cc1 (stereo not given)
output: 4.04

###

Molecular target: Phenylethanolamine N-methyltransferase (Homo sapiens) (UniProt P11086)
Sequence (P11086 whole entry, looked up): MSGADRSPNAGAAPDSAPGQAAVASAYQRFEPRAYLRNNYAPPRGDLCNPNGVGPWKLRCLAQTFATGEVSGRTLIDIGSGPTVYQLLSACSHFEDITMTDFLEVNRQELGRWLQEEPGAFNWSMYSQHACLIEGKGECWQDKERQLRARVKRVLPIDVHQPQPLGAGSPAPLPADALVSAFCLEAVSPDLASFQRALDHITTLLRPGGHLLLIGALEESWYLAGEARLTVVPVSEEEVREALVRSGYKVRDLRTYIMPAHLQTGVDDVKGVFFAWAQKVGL
Assay: Primary Screen for Target Class Profiling of Small Molecule Inhibitors of Methyltransferases; note: % is set by controls: 0 for no effect and ±100 for the full control effect
Conditions: purified enzyme, MTase-Glo SAH luminescence; measured here: PNMT inhibition; at 40 µM; stronger effect = lower value
The whole screen tested about 25,000 compounds, of which about 970 (3.9%) were called active. About 8% were inconclusive and are not listed. This excerpt belongs to a sample that is enriched for actives.
Kindly state activity change, negative = inhibition for each of the entries shown.
Field format: number, assumed %, no unit text.

input: # lookup: activity change, negative = inhibition of CCc1ccc(C2c3cccn3-c3ccccc3CN2C(=O)Nc2cc(C)cc(C)c2)cc1 (stereo not drawn)
output: 7.84

input: # lookup: activity change, negative = inhibition of CN(C)c1ccc(C2c3cccn3-c3ccccc3CN2C(=O)NCc2ccccc2)cc1 (stereo not drawn)
output: -0.417

input: # lookup: activity change, negative = inhibition of C[C@H]1O[C@@H](O[C@H]2CC[C@]3(CO)C4CC[C@]5(C)[C@@H](C6=CC(=O)OC6)CC[C@]5(O)[C@@H]4CC[C@H]3C2)[C@H](O)[C@H](O)[C@@H]1O[C@@H]1O[C@H](CO)[C@@H](O)[C@H](O)[C@H]1O (stereo partly drawn)
output: 0.37

input: # lookup: activity change, negative = inhibition of CC(=O)Nc1ccc(-c2ccc3n(c2=O)C[C@H]2C[C@@H]3CN(C3CCN(C)CC3)C2)cc1
output: 8.92

input: # lookup: activity change, negative = inhibition of COC(=O)c1ccccc1NC(=O)N1Cc2ccccc2-n2cccc2C1c1ccccc1Cl (stereo not drawn)
output: 5.41

input: # lookup: activity change, negative = inhibition of COCC1CN(Cc2ccsc2)CC12CCNCC2 (stereo not drawn)
output: -11.5

input: # lookup: activity change, negative = inhibition of COc1cccc(CC(=O)N2CCCCCC2CN2CCCC2)c1 (stereo not drawn)
output: 0.866

input: # lookup: activity change, negative = inhibition of C#C[C@]1(O)CC[C@H]2[C@@H]3CC[C@H]4Cc5nc6nc7ccccc7n6cc5C[C@]4(C)[C@H]3CC[C@@]21C
output: -33.3
